- Species on record: Rattus norvegicus
- measurement_protocol: DrugMatrix - Regimen: Daily Repeat
- Type: toxicity, organism-based, Sprague-Dawley
- Parameters: regimen Daily Repeat, gender Male, age 6-8 weeks
- condition_description: in vivo, po, 0 mg/kg, […], tissue Blood, route oral GAVAGE, dose level Control, time 14 day, vehicle .5 % CMC
readout_label: BASOPHIL (%)
Entry rule: numbers only, all in %.

Here are 3 compounds together with their reported answers.
compound_string=CCOP(=S)(OCC)Oc1nc(Cl)c(Cl)cc1Cl quantity_unit=% numeric_readout=0.97
compound_string=ClC(Cl)Br quantity_unit=% numeric_readout=0
compound_string=ClC(Br)Br quantity_unit=% numeric_readout=0

Moving on to another compound below.
Incoming: Request the reported BASOPHIL associated with COc1ccc(C(=O)Nc2c(Cl)c[n+]([O-])cc2Cl)c2ccc(C(F)(F)F)nc12
Outgoing: 0.38

---

- Species on record: Rattus norvegicus
- measurement_protocol: DrugMatrix - Regimen: Daily Repeat
- Type: toxicity, organism-based, Sprague-Dawley
- Set-up: regimen Daily Repeat, gender Male, age 6-8 weeks
- condition_description: in vivo, iv, 0 mg/kg, 72 h, tissue Plasma, dose level Control, time 3 day, vehicle 100 % SALINE
Each entry below lists one item and its recorded LACTATE DEHYDROGENASE value.
Reply with just the number (in u/L).

compound_string=CC[C@]1(O)C[C@H]2CN(CCc3c([nH]c4ccccc34)[C@@](C(=O)OC)(c3cc4c(cc3OC)N(C=O)[C@H]3[C@@](O)(C(=O)OC)[C@H](OC(C)=O)[C@]5(CC)C=CCN6CC[C@]43[C@@H]65)C2)C1 quantity_unit=u/L numeric_readout=105.67
compound_string=COc1cc2c3cc1Oc1cc(ccc1O)C[C@@H]1c4c(cc(OC)c(O)c4Oc4ccc(cc4)C[C@@H]3N(C)CC2)CC[N+]1(C)C.[Cl-] quantity_unit=u/L numeric_readout=578.5

Note: attention shifts to another entry.
Incoming: Entry under review: Cc1ccc(N(CC2=NCCN2)c2cccc(O)c2)cc1 . Reported LACTATE DEHYDROGENASE?
Outgoing: 131

---

- Species: Rattus norvegicus
- measurement_protocol: DrugMatrix - Regimen: Daily Repeat
- Type: toxicity, organism-based, Sprague-Dawley
- Design: regimen Daily Repeat, gender Male, age 6-8 weeks
- condition_description: in vivo, po, 0 mg/kg, 120 h, tissue Blood, route oral GAVAGE, dose level Control, time 5 day, […]
Consider the following compounds and their measured ABSOLUTE LYMPHOCYTE readings.

Observe how each entry below is paired with its result.
compound=OC(Cn1cncn1)(Cn1cncn1)c1ccc(F)cc1F result="15021.67 CELLS/uL"
compound=CC(C)(Oc1ccc(Cl)cc1)C(=O)O result="15950.83 CELLS/uL"
compound="Cc1oncc1C(=O)Nc1ccc(C(F)(F)F)cc1 [LEFLUNOMIDE]" result="8734 CELLS/uL"
compound=O=C(O)CCCc1ccc(N(CCCl)CCCl)cc1 result="15021.67 CELLS/uL"

Next up:
Incoming: // lookup ABSOLUTE LYMPHOCYTE for C[C@H]1O[C@@H](O[C@H]2[C@@H](O)C[C@H](O[C@H]3[C@@H](O)C[C@H](O[C@H]4CC[C@@]5(C)[C@H](CC[C@@H]6[C@@H]5C[C@@H](O)[C@]5(C)[C@@H](C7=CC(=O)OC7)CC[C@]65O)C4)O[C@@H]3C)O[C@@H]2C)C[C@H](O)[C@@H]1O
Outgoing: 8546.17 CELLS/uL
